B1: HDV Ribozyme (parent)
chain: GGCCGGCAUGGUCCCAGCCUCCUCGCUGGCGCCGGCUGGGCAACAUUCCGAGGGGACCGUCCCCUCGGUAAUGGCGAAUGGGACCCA

# Variants of: B1
# assay_protocol: self-cleavage, relative activity (ratio to wild type); higher = more cleavage; co-transcriptional
measured_quantity: self-cleavage
API doc: respond with a numeric literal and nothing else, no unit.

What measured self-cleavage goes with C22G G28U ?
0.0739

Find the recorded self-cleavage belonging to C58A C63A and report it.
1.04

Quick check: self-cleavage of U37A G74C ?
0.212

Consider the variant G6C A43U and give its measured self-cleavage.
0.0594

Requested read-out: self-cleavage. Entry: C13A U65G
0.208

Using the record for G6A A51U , report its self-cleavage.
0.778

What measured self-cleavage goes with C58G G80A ?
0.332

Need self-cleavage, item G29A G50C
0.121

Param item = U37C G55A ; retrieve measured self-cleavage.
1

Can you look up the measured self-cleavage of G11U G34C for me?
0.166

Name the reported self-cleavage value associated with the variant G11A C48G
0.288

# credit: the RNAGym collection of RNA variant scans (doi:10.7554/elife.80360)
